# experiment_description: RP, Merck Supelco Ascentis Express C18, 100 × 2.1 mm, 2 µm, 39 °C, 0.3 mL/min, estimated dead time 0.73 min; A: water + 0.1% formic acid, pH 3; B: acetonitrile + 0.1% formic acid, pH 3; gradient (min/%B) 0/5 2/5 17/99.9 20/99.9
# measurement_parameters: stereoisomer not certain
reported_property: LC retention time (min)
Expressed in min, but write only the number.

Illustrative cases are given below, each with its answer.
CC1C(=O)Nc2ccccc21 (stereo unspecified) :: 6.16
CC1NC(=O)NC1CCCCCC(=O)O (stereo unspecified) :: 5.15
NCCc1ccc(O)cc1 :: 0.883
COc1cc(CCN)ccc1O :: 1.13
O=C/C=C/c1ccccc1 [TRANS-CINNAMALDEHYDE] :: 10.7

For the next question, use this compound.
Looking for the measured LC retention time of NCCc1c[nH]c2ccccc12 , can you help?
3.5

###

# experiment_description: RP, Merck Supelco Ascentis Express C18, 100 × 2.1 mm, 2 µm, 40 °C, 0.2 mL/min, estimated dead time 1.1 min; A: water + 0.1% formic acid, pH 3; B: acetonitrile + 0.1% formic acid, pH 3; gradient (min/%B) 0/5 2/5 17/99.9 20/99.9
# measurement_parameters: stereoisomer not certain
reported_property: LC retention time
Could you write the number and then its unit?

Illustrative cases are given below, each with its answer.
CC1C(=O)Nc2ccccc21 (centres undefined) :: 7.09 min
CC12CCC(=O)C=C1CCC1C2C(O)CC2(C)C1CCC2(O)C(=O)CO (centres undefined) :: 8.03 min
O=C(O)Cc1ccccc1O [2-HYDROXYPHENYLACETATE] :: 4.83 min

For the next question, use this molecule.
Looking for the measured LC retention time of Cc1ccc(O)c(O)c1 , can you help?
2.48 min
